Test system: BxPC-3
Assay Notes: cells
Set-up: ATPlite luminescence viability of PDAC cell lines, 11-dose single-agent curves, 4-parameter fit
Test Parameters: Homo sapiens, BXPC-3, 72 h, read-out: EC50 [nM]
Value Type: EC50 (nM)
Give a bare numeral; the unit nM is implied.

Q: Query (molecule): CN(C)CCCOc1ccc(-c2ccc3ncc4c(c3c2)n(C2CCOCC2)c(=O)n4C)cn1 [AZD-0156] ; field requested: EC50
A: 5990

Q: # EC50 lookup, item COc1cc2/c(=N/c3ccc(Br)cc3F)nc[nH]c2cc1OCC1CCN(C)CC1 [Vandetanib]
A: 3600

Q: So what's the measured EC50 for this one? Cc1ccc(C(=O)Nc2ccc(CN3CCN(C)CC3)c(C(F)(F)F)c2)cc1C#Cc1cnc2cccnn12 [Ponatinib]
A: 739

Q: # query: EC50 of entry CNC(=O)c1cc(Oc2ccc(NC(=O)Nc3ccc(Cl)c(C(F)(F)F)c3)c(F)c2)ccn1 [Regorafenib]
A: 7410

Q: Please give the measured EC50 for this molecule: COc1cc2c(Oc3ccc4[nH]c(C)cc4c3F)ccnc2cc1OCC1(N)CC1 [Anlotinib]
A: 1520

Q: Record request: EC50 value, item Cc1cnc(Nc2ccc(OCCN3CCCC3)cc2)nc1Nc1cccc(S(=O)(=O)NC(C)(C)C)c1 [Fedratinib]
A: 659

Q: Value lookup for EC50; key = O=C(Cc1ccc(-c2ccc(OCCN3CCOCC3)cc2)cn1)NCc1ccccc1 [Tirbanibulin]
A: 29.9

Q: Param item = CC[C@@H]1C(=O)N(C)c2cnc(Nc3ccc(C(=O)N[C@H]4CC[C@H](N5CCN(CC6CC6)CC5)CC4)cc3OC)nc2N1C(C)C [Volasertib] ; retrieve measured EC50.
A: 25.2

Q: Requested read-out: EC50. Entry: Cc1ccc(C(=O)OCc2ccc([C@@H](CN)C(=O)Nc3ccc4cnccc4c3)cc2)c(C)c1 [Netarsudil]
A: 4970

Q: For CCN1C(=O)N(c2c(F)c(OC)cc(OC)c2F)Cc2cnc3[nH]c(CN4CCOCC4)cc3c21 [Pemigatinib] , what is its reported EC50?
A: 1370

Q: EC50 lookup needed for O=C1CCc2c(Oc3ccc4c(c3)[C@@H]3[C@H](O4)[C@H]3c3nc4cc(C(F)(F)F)ccc4[nH]3)ccnc2N1 [Lifirafenib] , thanks.
A: 3060

Q: Please report the recorded EC50 for CCn1c(=O)c(-c2cc(NC(=O)Nc3ccccc3)c(F)cc2Br)cc2cnc(NC)cc21 [Ripretinib] .
A: 467

Q: What value of EC50 has been recorded for this entry: COc1cc(Nc2c(C#N)cnc3cc(OCCCN4CCN(C)CC4)c(OC)cc23)c(Cl)cc1Cl [Bosutinib]
A: 2170

Q: I have this molecule here, CC(=O)Nc1cccc(-n2c(=O)n(C3CC3)c(=O)c3c(Nc4ccc(I)cc4F)n(C)c(=O)c(C)c32)c1 [Trametinib] , and I need its recorded EC50.
A: 13.1

----------
System: MiaPaCa-2
Assay Notes: cells
Set-up: ATPlite luminescence viability of PDAC cell lines, 11-dose single-agent curves, 4-parameter fit
Test Parameters: Homo sapiens, MIA PaCa-2, 72 h, read-out: EC50 [nM]
Value Type: EC50 (nM)
The answer is to be given in nM; state only the numeric part.

Q: Fill in the blank: the reported EC50 of O=C(Cc1ccc(-c2ccc(OCCN3CCOCC3)cc2)cn1)NCc1ccccc1 is ____.
A: 26.3

Q: So what's the measured EC50 for this one? CC(C)(C)c1cc(NC(=O)Nc2ccc(-c3cn4c(n3)sc3cc(OCCN5CCOCC5)ccc34)cc2)no1
A: 1410

Q: Any idea what EC50 was measured for COCc1c(-c2cc3cc(C)cc(OC)c3s2)c2c(N)ncnn2c1CN1CCNC(=O)C1 ?
A: 2050

Q: Reported EC50, compound NC(=O)c1cccc2cn(-c3ccc([C@@H]4CCCNC4)cc3)nc12 : ____
A: 2020

Q: If you can, please state the reported EC50 value of CCCCCCCCCCCCCCCCCCOP(=O)([O-])OC1CC[N+](C)(C)CC1 .
A: 2990

Q: State the recorded EC50 for this entry: Cc1ccc(C(=O)Nc2ccc(CN3CCN(C)CC3)c(C(F)(F)F)c2)cc1C#Cc1cnc2cccnn12
A: 335

Q: Requested field: EC50. Item: Cc1ccc(NC(=O)c2ccc(CN3CCN(C)CC3)cc2)cc1Nc1nc(-c2cccnc2)cs1
A: 3770

Q: Name the reported EC50 value associated with the compound C[C@]12O[C@H](C[C@]1(O)CO)n1c3ccccc3c3c4c(c5c6ccccc6n2c5c31)CNC4=O
A: 275

Q: Fill in: EC50 of CN1CCN(c2ccc(C(=O)Nc3n[nH]c4ccc(Cc5cc(F)cc(F)c5)cc34)c(NC3CCOCC3)c2)CC1 is ___
A: 2720

Q: Endpoint output: EC50 of COc1cc(OC)c(/C=C/S(=O)(=O)Cc2ccc(OC)c(NCC(=O)O)c2)c(OC)c1 . Value?
A: 324

Q: Any idea what EC50 was measured for CN(C)C(=O)c1cc2cnc(Nc3ccc(N4CCNCC4)cn3)nc2n1C1CCCC1 ?
A: 1280
